- Assay Notes: RPMI8226 myeloma cell viability, profiling panel, resazurin fluorescence, basal, 24 h, PK04 Diversity Set (AID 1180);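 also: RPMI8826 multiple myeloma cell line at 5000 cells per well; test concentration not given here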
- Assay Setup: higher = more signal
Readout Name: z-score
Just the number.

Would you please look over these solved cases?
• COCCn1c(C(=O)N2CCCC2)cc2c1C[C@H]1CN(C(=O)c3ccccc3)[C@@](Cc3ccccc3)(C(=O)OC)[C@@H]21 = -0.923
• CN1C(=O)[C@]2(CCC(=O)OC(C)(C)C)N=C(c3ccc(OCCCO)cc3)O[C@@H]2c2ccccc21 = -1.56
• CC(=O)NCCCC[C@@H]1NC(=O)[C@H]2C[C@@H](C(=O)NCCCCCC[N+](C)(C)C)[C@@H](c3ccc(O)cc3)N2C1=O = -0.0771

Any idea what z-score was measured for O=c1cccc(-c2ccccc2C(F)(F)F)o1 ?
-0.59

---

z-score reference
- Assay Notes: inhibitors of hydroxyurea-induced Chk1 phosphorylation, primary screen, imaging, HeLa, phospho-Chk1 nuclear intensity (AID 1187); also: test concentration not given here
- Assay Setup: hydroxyurea-induced phospho-Chk1 immunofluorescence imaging, higher = more signal
Just the number.

Would you please look over these solved cases?
* CO[C@H]1O[C@H](CO)[C@@H](OC(=O)Nc2ccc(C(F)(F)F)cc2)[C@H](OC(=O)Nc2ccccc2-c2ccccc2)[C@H]1OC(=O)Nc1ccccc1-c1ccccc1 | 0.784
* CC(C)C[C@@H]1NC(=O)[C@@H]2C[C@H](C(=O)NCCCC[N+](C)(C)C)[C@H](c3ccc(O)cc3)N2C1=O | 0.0766

Any idea what z-score was measured for COc1ccc(C(O)C2C=CC3C(=O)N(C)C(=O)C3N2Nc2ccc([N+](=O)[O-])cc2[N+](=O)[O-])cc1OCc1ccccc1 (centres undefined) ?
0.219

Any idea what z-score was measured for O=C1C2C=CC(C(O)c3cccs3)N(Nc3ccccc3)C2C(=O)N1c1ccccc1 (centres undefined) ?
-0.649

Any idea what z-score was measured for CN1C=C(C(=O)OCCS(C)(=O)=O)C(C(=O)OCCS(C)(=O)=O)=CC(CCCO)=CC1c1ccc(CN2CCCC2)cc1 (centres undefined) ?
-0.0538

---

- Assay Notes: compound binding in COS7 lysate, probe aLAP1, primary screen, cell lysate, small-molecule microarray (AID 1124);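 also: lysate comes from COS7 cells expressing LAP1 and is applied at 0.3 µg/mL; score merges spot fluorescence near 667 nm with signal-to-noise over triplicate slides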
- Assay Setup: probe aLAP1, fluorescence, higher = more signal
Readout Name: composite z-score
Just the number.

Would you please look over these solved cases?
* COc1ccc([Si](C)(C)[C@H]2[C@H](CCO)O[C@@]3(C(=O)N(Cc4ccc(N5CCOC5=O)cc4)c4ccccc43)[C@@H]2C)cc1 | 0.171
* CC(C)(C)OC(=O)CC[C@]1(C(=O)N2CCOCC2)N=C(c2ccc(OCCCO)cc2)O[C@H]1c1ccccc1CN=[N+]=[N-] | 0.519

# next compound below
Any idea what composite z-score was measured for COCCOC(=O)N1C(=O)[C@@]2(c3cc(C#CCC(C(=O)OC)C(=O)OC)ccc31)[C@H](C(=O)N1CCc3cc(OC)c(OC)cc3C1)[C@H]1C(=O)O[C@H](c3ccccc3)[C@H](c3ccccc3)N1[C@@H]2c1ccc(O)cc1 ?
0.617

---

- Assay Notes: P. aeruginosa biofilm formation inhibitors, primary screen, PAO1 strain, BacTiter-Glo luminescence, LB-PBS (AID 1144)
- Assay Setup: 12 h, higher = more signal
Readout Name: z-score
Just the number.

Would you please look over these solved cases?
* COCCCNC(=O)[C@@]1(Sc2ccc(C)cc2)CC(=O)N(C2CCCCC2)[C@@H]1c1ccc(CO)cc1I | 0.134
* COCCOC(=O)N1C(=O)[C@@]2(c3cc(C#Cc4ccc(OC)cc4)ccc31)[C@H](C(=O)Nc1nc3ccccc3s1)[C@H]1C(=O)O[C@H](c3ccccc3)[C@H](c3ccccc3)N1[C@@H]2c1ccccc1OCCO | -1.6
* NC(=O)NCC#Cc1ccc2c(c1)[C@]1(C(=O)N2)[C@H](C(=O)N2CCCCCCC2)[C@H]2C(=O)O[C@H](c3ccccc3)[C@H](c3ccccc3)N2[C@@H]1c1ccc(O)cc1 | -0.209

Any idea what z-score was measured for CCCCC(=C=CC[C@@H](O)c1ccc(OCCO)cc1)C[C@@H](O)c1ccccn1 ?
0.412

Any idea what z-score was measured for CCN(CC)c1ccc(N2CC=CC34O[C@@H]5C=CCOC(=O)[C@@H]5[C@H]3C(=O)N(CCCO)[C@@H]4C2=O)cc1 (some centres undefined) ?
-0.527

Any idea what z-score was measured for CC(C)(C)OC(=O)CC[C@]1(C(N)=O)N=C(c2ccc(OCCCO)cc2)O[C@H]1c1ccccc1CN=[N+]=[N-] ?
0.201

Any idea what z-score was measured for NCCCC[C@@H]1NC(=O)[C@H]2C[C@@H](C(=O)O)[C@@H](c3cccc(OCCO)c3)N2C1=O ?
-0.0686

Any idea what z-score was measured for COCCOC(=O)N1C(=O)[C@@]2(c3cc(C#CCC(C(=O)OC)C(=O)OC)ccc31)[C@H](C(N)=O)[C@H]1C(=O)O[C@H](c3ccccc3)[C@H](c3ccccc3)N1[C@@H]2c1ccc(OCCO)cc1 ?
-0.224

Any idea what z-score was measured for COC(=O)[C@@]1(Cc2ccc(F)cc2)[C@H]2c3cc(C(=O)N(C)C)n(CCn4cc([N+](=O)[O-])nc4C)c3C[C@H]2CN1C(=O)c1ccccc1 ?
-0.0864

Any idea what z-score was measured for C[N+](C)(C)CCCCCCNC(=O)[C@H]1C[C@H]2C(=O)NCC(=O)N2[C@H]1c1cccc(OCCO)c1 ?
0.052

Any idea what z-score was measured for NCCCC[C@@H]1NC(=O)[C@H]2C[C@@H](C(=O)NCc3ccc(F)cc3)[C@@H](c3ccc(O)cc3)N2C1=O ?
-0.0714
